Value source: paper PMC10653547

test system: colistin-resistant K. pneumoniae clinical isolates; test: Disk diffusion antimicrobial susceptibility testing (CLSI); format: cell-based, Klebsiella pneumoniae; settings: KP-08; note: key: R: resistant; I: intermediate; SDD: susceptible-dose dependent; S: sensitive
measure: Interpreted results of disk diffusion

Known results for compounds:
compound	Interpreted results of disk diffusion
C[C@@H](O)[C@H]1C(=O)N2C(C(=O)O)=C(S[C@@H]3CN[C@H](C(=O)Nc4cccc(C(=O)O)c4)C3)[C@H](C)[C@H]12	R
O=C(N[C@H](CO)[C@H](O)c1ccc([N+](=O)[O-])cc1)C(Cl)Cl	S
CO[C@@]1(NC(=O)Cc2cccs2)C(=O)N2C(C(=O)O)=C(COC(N)=O)CS[C@@H]21	R
CO/N=C(\C(=O)N[C@@H]1C(=O)N2C(C(=O)[O-])=C(C[N+]3(C)CCCC3)CS[C@H]12)c1csc(N)n1 [FEP, cefepime]	R
NCC[C@H](O)C(=O)N[C@@H]1C[C@H](N)[C@@H](O[C@H]2O[C@H](CN)[C@@H](O)[C@H](O)[C@H]2O)[C@H](O)[C@H]1O[C@H]1O[C@H](CO)[C@@H](O)[C@H](N)[C@H]1O	S
C[C@@H]1O[C@@H]1P(=O)(O)O	R

Challenge: Which Interpreted results of disk diffusion is listed for CO/N=C(\C(=O)N[C@@H]1C(=O)N2C(C(=O)O)=C(CSc3nc(=O)c(=O)[nH]n3C)CS[C@H]12)c1csc(N)n1 ?
Response given: R

Challenge: Same for CC(C)(O/N=C(\C(=O)N[C@@H]1C(=O)N2C(C(=O)[O-])=C(C[n+]3ccccc3)CS[C@H]12)c1csc(N)n1)C(=O)O
Response given: R

Challenge: CNC(C)C1CCC(N)C(OC2C(N)CC(N)C(OC3OCC(C)(O)C(NC)C3O)C2O)O1 (stereo not drawn) ?
Response given: S

###

System: colistin-resistant K. pneumoniae clinical isolates
Test: Disk diffusion antimicrobial susceptibility testing (CLSI); note: key: R: resistant; I: intermediate; SDD: susceptible-dose dependent; S: sensitive
Type: cell-based, Klebsiella pneumoniae
Conditions: KP-09
Description: Ten non-duplicate clinical isolates of colistin-resistant E. coli (EC) and ten non-duplicate clinical isolates of colistin-resistant K. pneumoniae (KP) were obtained from the bacterial repository of the Division of Infectious Diseases and Tropical Medicine, Department of Medicine, Faculty of Medicine Siriraj Hospital, Mahidol University. The species identification was conducted through standard biochemical tests. […]
measure: Interpreted results of disk diffusion

compound	measure	endpoint value
NCC[C@H](O)C(=O)N[C@@H]1C[C@H](N)[C@@H](O[C@H]2O[C@H](CN)[C@@H](O)[C@H](O)[C@H]2O)[C@H](O)[C@H]1O[C@H]1O[C@H](CO)[C@@H](O)[C@H](N)[C@H]1O [AK, amikacin]	Interpreted results of disk diffusion	S
O=C(N[C@H](CO)[C@H](O)c1ccc([N+](=O)[O-])cc1)C(Cl)Cl [C, chloramphenicol]	Interpreted results of disk diffusion	I
CC(C)(O/N=C(\C(=O)N[C@@H]1C(=O)N2C(C(=O)[O-])=C(C[n+]3ccccc3)CS[C@H]12)c1csc(N)n1)C(=O)O [CAZ, ceftazidime]	Interpreted results of disk diffusion	R
CO[C@@]1(NC(=O)Cc2cccs2)C(=O)N2C(C(=O)O)=C(COC(N)=O)CS[C@@H]21 [FOX, cefoxitin]	Interpreted results of disk diffusion	R
C[C@@H](O)[C@H]1C(=O)N2C(C(=O)O)=C(S[C@@H]3CN[C@H](C(=O)Nc4cccc(C(=O)O)c4)C3)[C@H](C)[C@H]12 [ETP, ertapenem]	Interpreted results of disk diffusion	R

Now consider a different compound.
Challenge: Entry under review: CO/N=C(\C(=O)N[C@@H]1C(=O)N2C(C(=O)[O-])=C(C[N+]3(C)CCCC3)CS[C@H]12)c1csc(N)n1 [FEP, cefepime] . Reported Interpreted results of disk diffusion?
Response given: R
